- measurement.target: T1, Numb PTB R171A (Drosophila, UniProt P16554-1 65-203, R171A)
- T1 sequence: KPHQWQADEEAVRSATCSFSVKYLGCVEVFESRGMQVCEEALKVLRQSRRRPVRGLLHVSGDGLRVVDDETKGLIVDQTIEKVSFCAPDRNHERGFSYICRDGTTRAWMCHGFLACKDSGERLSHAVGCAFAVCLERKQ
- assay.procedure: ITC
readout: Kd

binder: KKKKREHACFENPGLNLELPEKQFNPYEVVRSA [Pon A2B2 fragment]
Kd: > 100 µM

Query: Please look up its Kd: QQKLPTNPFEVLRQPPKKKKREHACFENPGLNLE [Pon B1A2 fragment]
Response: > 100 µM
